target: UDP-glucuronosyltransferases (UGTs) (family) (Homo sapiens, UniProt O60656+O75310+O75795+P06133+P0DTE4+P0DTE5+P16662+P19224+P22309+P22310+P35503+P35504+P36537+P54855+Q6UWM9+Q9BY64+Q9HAW7+Q9HAW8+Q9HAW9); assay: Drug metabolism in human liver microsome S9 fraction assessed as UGT-mediated metabolism by measuring compound remaining at 5 uM pretreated with UDPGA and measured after 60 mins by UPLC-MS/MS analysis; type: ADME, microsomes; details: liver microsome S9 fraction, read-out: Stability
Reported Property: remaining at 1 h, 5 µM (%)
# number only, unit % dropped from output

Data request, read-out remaining at 1 h, 5 µM, for Nc1ncnc2c1c(-c1ccc(Cl)cc1)cn2[C@@H]1O[C@H](CO)C[C@H]1O
100

Looking for the measured remaining at 1 h, 5 µM of Nc1ncnc2c1c(-c1ccc(Cl)cc1)cn2[C@@H]1O[C@H](CO)[C@@H](O)[C@H]1O , can you help?
91

* * *

Kindly state remaining at 0.5 h, 5 µM for each of the entries shown.
test system: UGT; assay: Drug metabolism in mouse liver microsome S9 fraction assessed as UGT-mediated metabolism by measuring compound remaining at 5 uM pretreated with UDPGA and measured after 30 mins by UPLC-MS/MS analysis; format: ADME, microsomes; settings: liver microsome S9 fraction, read-out: Stability
Numeric only. Scale: %

Query the reported remaining at 0.5 h, 5 µM for UGT; item: Nc1ncnc2c1c(-c1ccc(Cl)cc1)cn2[C@@H]1O[C@H](CO)[C@@H](O)[C@H]1O
110

Param readout = remaining at 0.5 h, 5 µM; param system = UGT; param query = Nc1ncnc2c1c(-c1ccc(Cl)cc1)cn2[C@@H]1O[C@H](CO)C[C@H]1O ; response: value
95

* * *

target: Cytochrome P450 (family) (Homo sapiens, UniProt P04798+P05177+P05181+P08684+P10632+P10635+P11509+P11712+P13584+P20813+P20815+P20853+P24462+P24903+P33260+P33261+P51589+P78329+P98187+Q02928+Q08477+Q16678+Q16696+Q5TCH4+Q6VVX0+Q7Z449+Q8TAV3+Q96SQ9+Q9HB55); test: Drug metabolism in human liver microsome S9 fraction assessed as CYP450-mediated metabolism by measuring compound remaining at 5 uM pretreated with NADPH and measured after 30 mins by UPLC-MS/MS analysis; assay type: ADME, microsomes; conditions: liver microsome S9 fraction, read-out: Stability
Reported Property: remaining at 0.5 h, 5 µM (%)
Note: unit % is implicit; provide only the numeric part.

State the recorded remaining at 0.5 h, 5 µM for this entry: Nc1ncnc2c1c(-c1ccc(Cl)cc1)cn2[C@@H]1O[C@H](CO)C[C@H]1O
95

Would you kindly share the measured remaining at 0.5 h, 5 µM for Nc1ncnc2c1c(-c1ccc(Cl)cc1)cn2[C@@H]1O[C@H](CO)[C@@H](O)[C@H]1O ?
93

* * *

tested on: CYP450; experiment: Drug metabolism in mouse liver microsome S9 fraction assessed as CYP450-mediated metabolism by measuring compound remaining at 5 uM pretreated with NADPH and measured after 15 mins by UPLC-MS/MS analysis; format: ADME, microsomes; conditions: liver microsome S9 fraction, read-out: Stability
So I've got a bunch of compounds here, and I need their remaining at 0.25 h, 5 µM values.
Report the figure in % without appending any unit label.

// returns reported remaining at 0.25 h, 5 µM for input Nc1ncnc2c1c(-c1ccc(Cl)cc1)cn2[C@@H]1O[C@H](CO)C[C@H]1O
86

For the compound shown here, Nc1ncnc2c1c(-c1ccc(Cl)cc1)cn2[C@@H]1O[C@H](CO)[C@@H](O)[C@H]1O , give the reported remaining at 0.25 h, 5 µM.
110
